This collection of values is drawn from patent US20030068675.

Biological target: T1, ZFP SBS#752 (synthetic, UniProt P08047)
T1 chain: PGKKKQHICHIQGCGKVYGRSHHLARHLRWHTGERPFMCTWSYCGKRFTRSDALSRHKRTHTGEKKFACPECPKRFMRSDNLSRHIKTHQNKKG
Test: EMSA
Conditions: tags: MBP fusion
quantity measured: Kd
Please format your answer as a value with the unit trailing.

For the binder GAGGTGGGGA (dsDNA) DNA 1: GAGGTGGGGA DNA 2: TCCCCACCTC , give its measured Kd value. 31 nM
